SUBJECT_OF_TEST: menin protein (Homo sapiens (Human), UniProt O00255)
Sequence (O00255 whole entry): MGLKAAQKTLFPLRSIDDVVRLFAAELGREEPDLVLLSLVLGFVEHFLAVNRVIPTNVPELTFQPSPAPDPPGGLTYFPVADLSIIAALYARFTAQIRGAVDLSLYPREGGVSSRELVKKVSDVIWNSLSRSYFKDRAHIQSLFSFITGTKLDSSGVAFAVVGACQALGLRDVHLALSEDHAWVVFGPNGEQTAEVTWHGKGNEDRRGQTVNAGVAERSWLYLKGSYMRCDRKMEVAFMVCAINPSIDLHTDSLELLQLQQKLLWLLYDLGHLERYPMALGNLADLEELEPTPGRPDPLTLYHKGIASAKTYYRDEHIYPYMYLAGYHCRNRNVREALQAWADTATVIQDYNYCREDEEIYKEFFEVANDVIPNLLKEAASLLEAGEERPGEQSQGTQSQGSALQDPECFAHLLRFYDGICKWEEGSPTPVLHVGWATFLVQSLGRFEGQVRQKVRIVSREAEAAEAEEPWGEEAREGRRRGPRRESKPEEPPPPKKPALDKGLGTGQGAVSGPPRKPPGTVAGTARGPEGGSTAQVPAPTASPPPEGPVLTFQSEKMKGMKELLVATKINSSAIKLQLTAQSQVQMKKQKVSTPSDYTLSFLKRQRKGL
TEST_METHOD_NOTES: biochemical
Assay type: binding
MEASUREMENT_SETUP: FP competitive binding; menin protein 4 nM, FAM-MM2 probe 2 nM; read-out: Menin Binding Affinity IC50
Each item that follows carries a reported IC50.
Return type: number; implicit unit nM.

Below, each entry is followed by its recorded IC50 result.
{"columns": ["COMPOUND", "QUANTITY_UNIT", "IC50"],
 "data": [
  ["CNC(=O)O[C@H]1CCC[C@@H]1C(C#N)(c1ccccc1)C1CCN(CC2CN(c3ccc(S(=O)(=O)c4nn(C)cc4Br)cc3)C2)CC1 (mixture of isomers)", "nM", 4],
  ["CNC(=O)O[C@H]1CCC[C@@H]1C(C#N)(c1ccccc1)C1CCN(CC2CN(c3ccc(S(=O)(=O)c4cnn(C)c4)cc3)C2)CC1 (mixture of isomers)", "nM", 9],
  ["N#Cc1ccc2[nH]c(CCN3CCC(C4(C5CCCC5)NCCc5ccccc54)CC3)cc2c1 (stereo not drawn)", "nM", 1200],
  ["CNC(=O)N[C@@H]1CCC[C@H]1C(CN)(c1ccccc1)C1CCN(CC2CN(c3ccc(S(=O)(=O)c4ccccc4)cc3)C2)CC1 (mixture of isomers)", "nM", 108],
  ["CNC(=O)N[C@H]1CCC[C@@H]1C1(C2CCN(CC3CN(c4ccc(S(=O)(=O)c5cnn(C)c5)cc4)C3)CC2)CN(C)Cc2ccccc21 (mixture of isomers)", "nM", 11]
]}

Let's switch to this compound now.
// IC50 lookup, compound = CCCC(=O)N1CCCCC1C1(C2CCN(CCCOc3ccc(C#N)cc3)CC2)CN(C)Cc2ccccc21 (stereo not drawn) , result: 6500
